pIC50: −log10 of the molar value.
Assembled from different publications: pIC50 for human HIF-PHD2 (Homo sapiens, UniProt Q9GZT9).

{"columns": ["molecule", "comparative sign", "pIC50"],
 "data": [
  ["CC1(C)C(=O)C(C(=O)NCC(=O)O)=C(O)c2cc(F)ccc21", ">", 7.00],
  ["CNC(=O)c1ccc(Cn2c3c(c(O)c(C(=O)NCC(=O)O)c2=O)CCOC3)cc1", "=", 7.67],
  ["O=C(O)CNC(=O)c1c(O)c2c(n(Cc3cnc(-c4ccccc4)s3)c1=O)C1CCC2C1 (centres unmarked)", "=", 7.72],
  ["CC1(C)C(=O)C(C(=O)NCC(=O)O)=C(O)c2ccc(CCc3ccccc3)cc21", ">", 7.00],
  ["COC(=O)C(C)CNC(=O)c1cc(O)c(C(=O)NC(c2ccccc2)c2ccccc2)cn1 (centres unmarked)", "=", 6.87],
  ["Cc1cccc(-c2ccc3c(O)c(C(=O)NCC(=O)O)c(=O)oc3c2)c1", "=", 6.52],
  ["O=C(O)c1cnn(-c2nc(O)c3c(cnn3C[C@H]3CCN(c4ccc(Cl)cc4)C3)n2)c1", "=", 7.68]
]}

----------
Assembled from different publications: IC50 for human HIF-PHD2 (Homo sapiens).

{"columns": ["compound", "comparative sign", "IC50 (nM)"],
 "data": [
  ["CC(C)(C)[C@H]1CC[C@@H](n2ncc3nc(-n4cc(C(=O)O)cn4)nc(O)c32)CC1", "=", 72],
  ["O=C(O)CNC(=O)c1c(O)c2c(n(Cc3ccc(F)cc3)c1=O)COC2", "=", 2.7],
  ["C[C@@H](c1ccc(Cl)cc1)n1ncc2nc(-n3cc(C(=O)O)cn3)nc(O)c21", "=", 17],
  ["Cc1nn(CC2CCCCCC2)c2c(O)nc(-n3cc(C(=O)O)cn3)nc12", "=", 48],
  ["C[C@@H](c1ccc(F)c(Cl)c1)n1nc(C2CC2)c2nc(-n3cc(C(=O)O)cn3)nc(O)c21", "=", 81],
  ["C[C@@H](c1ccc(C(F)(F)F)cc1)n1nc(Cl)c2nc(-n3cc(C(=O)O)cn3)nc(O)c21", "=", 16],
  ["Cc1cc(C)cc(C(C)n2ncc3nc(-n4cc(C(=O)O)cn4)nc(O)c32)c1 (stereo not drawn)", "=", 94],
  ["Cc1ncccc1-c1cc2c(O)c(C(=O)NCC(=O)O)c(=O)n(C)c2nc1C(F)(F)F", "<", 50],
  ["Cc1ccc2cc(CCn3ncc4nc(-n5cc(C(=O)O)cn5)nc(O)c43)ccc2c1C", "=", 21],
  ["Cn1c(=O)c(C(=O)NCC(=O)O)c(O)c2cc(-c3ccccc3)nnc21", "=", 17],
  ["C[C@@H](c1ccc(F)cc1F)n1nc(C2CC2)c2nc(-n3cc(C(=O)O)cn3)nc(O)c21", "=", 180],
  ["COc1cccc(-c2ncc3c(O)c(C(=O)NCC(=O)O)c(=O)n(C)c3n2)c1", "=", 10],
  ["Cn1c(=O)c(C(=O)NCC(=O)O)c(O)c2cc(Br)c(C(F)(F)F)nc21", "<", 50],
  ["COc1ccccc1-c1ccc(Cn2ncc3nc(-n4cc(C(=O)O)cn4)nc(O)c32)cc1F", "=", 24],
  ["CC(C)[C@H]1CC[C@H](Cn2ncc3nc(-n4cc(C(=O)O)cn4)nc(O)c32)CC1", "=", 14],
  ["C[C@H](c1ccc2ccccc2c1)n1ncc2nc(-n3cc(C(=O)O)cn3)nc(O)c21", "=", 72],
  ["Cc1ccc(C(C(C)C)n2ncc3nc(-n4cc(C(=O)O)cn4)nc(O)c32)cc1 (stereo not drawn)", "=", 70],
  ["Cn1c(=O)c(C(=O)NCC(=O)O)c(O)c2cnc(-c3ccc(N4CCCCC4)cc3)nc21", "=", 5.3],
  ["O=C(O)c1cnn(-c2nc(O)c3c(n2)c(F)nn3C2CCCCCCC2)c1", "=", 43],
  ["O=C(O)CNC(=O)c1c(O)c2c(n(Cc3ccc(F)cc3F)c1=O)CCOC2", "=", 10.3],
  ["Cc1ccccc1-c1ccc(Cn2ncc3nc(-n4cc(C(=O)O)cn4)nc(O)c32)c(F)c1", "=", 33],
  ["Cc1cc2c(cc1OCCCn1ncc3nc(-n4cc(C(=O)O)cn4)nc(O)c31)CCCC2", "=", 20],
  ["Cn1c(=O)c(C(=O)NCC(=O)O)c(O)c2ncc(-c3ccccc3)nc21", "=", 8.8],
  ["Cc1nn([C@@H](C)c2ccc(F)cc2)c2c(O)nc(-n3cc(C(=O)O)cn3)nc12", "=", 62],
  ["Cc1ccc(OC(C)(C)Cn2ncc3nc(-n4cc(C(=O)O)cn4)nc(O)c32)c2c1CCC2", "=", 26],
  ["CC1(C)CC(n2ncc3nc(-n4cc(C(=O)O)cn4)nc(O)c32)CC(C)(C)C1", "=", 30],
  ["Cn1c(=O)c(C(=O)NCC(=O)O)c(O)c2cnc(-c3ccccc3)nc21", "=", 4.3],
  ["Cc1nn([C@@H](C)c2ccc3ccccc3c2)c2c(O)nc(-n3cc(C(=O)O)cn3)nc12", "=", 30],
  ["O=C(O)CNC(=O)c1c(O)c2c(n(Cc3ccccc3C(=O)O)c1=O)COC2", "=", 17.4]
]}

----------
pIC50: −log10 of the molar value.
Assembled from different publications: pIC50 for human HIF-PHD2 (Homo sapiens, UniProt Q9GZT9).

{"columns": ["molecule", "comparative sign", "pIC50"],
 "data": [
  ["O=C(O)c1cnn(-c2nc(O)c3c(cnn3C[C@H]3CC[C@H](c4ccccc4)CC3)n2)c1", "=", 8.00],
  ["O=C(O)c1cnn(-c2nc(O)c3c(cnn3Cc3ccc(-c4ccccc4F)cc3C(F)(F)F)n2)c1", "=", 7.32],
  ["Cn1c(=O)c(C(=O)NCC(=O)O)c(O)c2sc(C(F)(F)F)c(-c3ccccc3)c21", "=", 7.74],
  ["C[C@@H](c1ccc(F)c(F)c1)n1nc(C2CC2)c2nc(-n3cc(C(=O)O)cn3)nc(O)c21", "=", 6.96],
  ["O=C(O)c1cnn(-c2nc(O)c3c(cnn3CCOc3ccc(C(F)(F)F)cc3)n2)c1", "=", 7.19],
  ["C[C@H](CNC(=O)c1ncc(C(=O)NC(c2ccccc2)c2ccccc2)c(O)n1)C(=O)O (single isomer, unassigned)", "=", 8.77],
  ["O=C(O)c1cnn(-c2nc(O)c3c(cnn3CC3CCCCCC3)n2)c1", "=", 7.62],
  ["O=C(O)CNC(=O)c1c(O)c2c(n(-c3ccc(Br)cc3)c1=O)CSC2", "=", 8.06],
  ["O=C(O)c1cnn(-c2nc(O)c3c(cnn3Cc3cc(F)cc(-c4ccccc4)c3)n2)c1", "=", 7.29],
  ["COc1ccc(-c2ccc(C3(NC(=O)c4cnc(C(=O)NCC(C)C(=O)O)nc4O)CC3)cc2)cn1 (single isomer, unassigned)", "=", 8.37],
  ["Cn1c(=O)c(C(=O)NCC(=O)O)c(O)c2cc(-c3ccccc3N3CCOCC3)cnc21", ">", 7.30],
  ["O=C(O)c1cnn(-c2nc(O)c3c(n2)c(Cl)nn3CC2CCCCC2)c1", "=", 7.32],
  ["O=C(O)c1cnn(-c2nc(O)c3c(cnn3[C@@H]3CCc4ccccc43)n2)c1", "=", 7.33],
  ["CCCC[C@H](C)n1ncc2nc(-n3cc(C(=O)O)cn3)nc(O)c21", "=", 7.28],
  ["COc1ccc(-c2cccc3c2C(O)=C(C(=O)NCC(=O)O)C3=O)cc1", "=", 8.44]
]}

----------
Assembled from different publications: IC50 for human HIF-PHD2 (Homo sapiens, UniProt Q9GZT9).
measure: IC50 (nM)

{"columns": ["compound", "result value"],
 "data": [
  ["O=C(O)CCNC(=O)c1ncc(C(=O)NC(c2ccc(Br)cc2)C(F)(F)F)c(O)n1 (centres unmarked)", 1.1],
  ["O=C(O)c1cnn(-c2nc(O)c3c(cnn3Cc3ccc(-c4ccc(F)cc4F)cc3F)n2)c1", 32],
  ["Cn1ccc(Cn2c3c(c(O)c(C(=O)NCC(=O)O)c2=O)COC3)n1", 7.1],
  ["O=C(O)CNC(=O)c1c(O)c2ccc(-c3ccc(Cl)c(Cl)c3)cc2oc1=O", 150],
  ["N#Cc1ccc(-c2ccc(Cn3c4c(c(O)c(C(=O)NCC(=O)O)c3=O)CCOC4)cc2)cc1", 16.3],
  ["CC1(C)CCC(n2ncc3nc(-n4cc(C(=O)O)cn4)nc(O)c32)CC1", 38],
  ["Cn1c(=O)c(C(=O)NCC(=O)O)c(O)c2cnc(-c3ccccc3F)nc21", 1.5]
]}
